system: SF-539; test: NCI tumour cell line growth inhibition, 48 h
The source made the active and inactive calls. Cut-off read from the data, not from the text of the source: active = GI50 up to about 1.1 µM and inactive = higher.

[
  {
    "compound": "COc1ccc(C(=O)c2cc(OC)c(OC)c(OC)c2)cc1OC",
    "test target": "SF-539",
    "GI50": "2.32 µM (inactive)"
  },
  {
    "compound": "COc1cc(-c2oc3c(OC)cc(OC)c(O)c3c(=O)c2OC)cc(OC)c1OC",
    "test target": "SF-539",
    "GI50": "8.57 µM (inactive)"
  },
  {
    "compound": "C=C1CCC2[C@@H](CCC3[C@]2(C)CCC[C@]3(C)C(=O)OC)C1CCO (stereo not given in full)",
    "test target": "SF-539",
    "GI50": "13.4 µM (inactive)"
  },
  {
    "compound": "NCCNC(=O)c1cccc2cc3ccccc3nc12",
    "test target": "SF-539",
    "GI50": "4.35 µM (inactive)"
  },
  {
    "compound": "O=c1[nH]nc(-c2ccc([N+](=O)[O-])cc2)n1/N=C/c1ccc([N+](=O)[O-])cc1",
    "test target": "SF-539",
    "GI50": "> 100 µM (inactive)"
  },
  {
    "compound": "C(=C\\c1csnn1)/c1cccnc1",
    "test target": "SF-539",
    "GI50": "> 100 µM (inactive)"
  },
  {
    "compound": "O=[PH](O)c1ccccn1",
    "test target": "SF-539",
    "GI50": "> 100 µM (inactive)"
  },
  {
    "compound": "Cc1ccc(N2Cc3c(ccc4ccccc34)OP2(=O)Oc2ccc(Cl)c(C)c2)cc1 (stereo not given)",
    "test target": "SF-539",
    "GI50": "> 100 µM (inactive)"
  },
  {
    "compound": "CC(=O)[C@@]1(c2ccccc2)CC2(CCN(C)CC2)O[C@H]1C",
    "test target": "SF-539",
    "GI50": "> 100 µM (inactive)"
  },
  {
    "compound": "Oc1cc(O)c2c(c1)O[C@H](c1ccc(O)c(O)c1)[C@@H](O)C2",
    "test target": "SF-539",
    "GI50": "> 100 µM (inactive)"
  },
  {
    "compound": "NC(=O)CCC(CCC(N)=O)(CCC(N)=O)[N+](=O)[O-]",
    "test target": "SF-539",
    "GI50": "> 100 µM (inactive)"
  },
  {
    "compound": "Fc1ccc(NC(=S)SCc2ccc3c(c2)OCO3)cc1F",
    "test target": "SF-539",
    "GI50": "22.7 µM (inactive)"
  },
  {
    "compound": "N#C/N=[N+](\\[O-])c1ccc(C(=O)O)cc1",
    "test target": "SF-539",
    "GI50": "16.3 µM (inactive)"
  },
  {
    "compound": "Cc1cccc(C)c1NC(=S)NC=C1C(=O)c2ccccc2C1=O",
    "test target": "SF-539",
    "GI50": "11.2 µM (inactive)"
  },
  {
    "compound": "C=Cc1cnc([N+](=O)[O-])n1C",
    "test target": "SF-539",
    "GI50": "74.1 µM (inactive)"
  }
]

---

test system: NCI/ADR-RES; experiment: NCI tumour cell line growth inhibition, 48 h
Active and inactive are the calls of the source. Cut-off read from the data, not from the text of the source: active = GI50 up to about 1.1 µM and inactive = higher.
GI50 values by entry
test readout: GI50

[
  {
    "compound": "N#C/N=[N+](\\[O-])c1ccc(C(=O)O)cc1",
    "test target": "NCI/ADR-RES",
    "result": "19.3 µM (inactive)"
  },
  {
    "compound": "COC(=O)C1(Cc2ccc3c(c2)CCC3)Cc2cc3c(cc2C1=O)CCC3 (stereo unspecified)",
    "test target": "NCI/ADR-RES",
    "result": "13.4 µM (inactive)"
  },
  {
    "compound": "COC(=O)[C@]12CC[C@H]3CC[C@H]([C@H]31)[C@H](c1ccccc1)N2",
    "test target": "NCI/ADR-RES",
    "result": "13.9 µM (inactive)"
  },
  {
    "compound": "Cc1ccc(S(=O)(=O)NC(=O)NC(CCCCNC(=N)N)C(=O)O)cc1 (stereo unspecified)",
    "test target": "NCI/ADR-RES",
    "result": "> 100 µM (inactive)"
  },
  {
    "compound": "C=Cc1cnc([N+](=O)[O-])n1C",
    "test target": "NCI/ADR-RES",
    "result": "> 100 µM (inactive)"
  },
  {
    "compound": "COc1ccc(-c2c(C#N)c(O)n(C3OC(CO)C(O)C(O)C3O)c(=S)c2C#N)cc1 (stereo unspecified)",
    "test target": "NCI/ADR-RES",
    "result": "> 100 µM (inactive)"
  },
  {
    "compound": "NC(=O)c1ccccc1NC(=O)C(=O)C(c1cnc2ccc([N+](=O)[O-])cc2n1)[N+](=O)[O-] (stereo unspecified)",
    "test target": "NCI/ADR-RES",
    "result": "> 100 µM (inactive)"
  },
  {
    "compound": "CC(C)(CN1CCCCC1)C(=O)/C=C/c1c(Cl)cccc1Cl",
    "test target": "NCI/ADR-RES",
    "result": "1.86 µM (inactive)"
  },
  {
    "compound": "COc1ccc(N(C)C(=O)N(C)c2ccc([N+](=O)[O-])cc2)cc1",
    "test target": "NCI/ADR-RES",
    "result": "23.6 µM (inactive)"
  },
  {
    "compound": "CN1CN(c2ccccc2)C2(CCN(CCCC(=O)c3cccs3)CC2)C1=O",
    "test target": "NCI/ADR-RES",
    "result": "41 µM (inactive)"
  },
  {
    "compound": "O=C(Nc1ccc2[nH]c(C(=O)N3CC(CCl)c4ccc([N+](=O)[O-])cc43)cc2c1)c1cc2ccccc2o1 (stereo unspecified)",
    "test target": "NCI/ADR-RES",
    "result": "> 1100 µM (inactive)"
  },
  {
    "compound": "COc1ccc2[nH]cc(C(=O)C(=O)NC34CC5CC(CC(C5)C3)C4)c2c1",
    "test target": "NCI/ADR-RES",
    "result": "55.2 µM (inactive)"
  },
  {
    "compound": "O=[N+]([O-])c1cccnc1NCC1(CO)CC(Cc2ccccc2)C1 (stereo unspecified)",
    "test target": "NCI/ADR-RES",
    "result": "> 100 µM (inactive)"
  },
  {
    "compound": "COc1cc(C)cc(OC)c1/C=C/C(=O)O",
    "test target": "NCI/ADR-RES",
    "result": "> 100 µM (inactive)"
  },
  {
    "compound": "COC(=O)c1ccccc1/C=C1\\Cc2ccc3c(c2C1=O)CCCC3",
    "test target": "NCI/ADR-RES",
    "result": "> 100 µM (inactive)"
  },
  {
    "compound": "[N-]=[N+]=Nc1cc(=O)n(-c2ccccc2)c(=O)n1-c1ccccc1",
    "test target": "NCI/ADR-RES",
    "result": "> 100 µM (inactive)"
  },
  {
    "compound": "O=P1(O)c2ccccc2CS(=O)(=O)Cc2ccccc21",
    "test target": "NCI/ADR-RES",
    "result": "> 100 µM (inactive)"
  },
  {
    "compound": "C=C[C@H]1CN2CCc3c([nH]c4c([C@@H]5CCCN5C)c(O)ccc34)[C@@H]2C[C@@H]1C[C@H]1c2[nH]c3ccccc3c2CCN1C",
    "test target": "NCI/ADR-RES",
    "result": "1.85 µM (inactive)"
  },
  {
    "compound": "COC(=O)[C@@H](NS(=O)(=O)CC12CCC(CC1)C2(C)C)C(C)(C)C",
    "test target": "NCI/ADR-RES",
    "result": "> 100 µM (inactive)"
  },
  {
    "compound": "O=C(NC1=C(Cl)C(=O)c2ccccc2C1=O)c1ccccc1",
    "test target": "NCI/ADR-RES",
    "result": "18.5 µM (inactive)"
  },
  {
    "compound": "O=S1(=O)CS(=O)(=O)OCCO1",
    "test target": "NCI/ADR-RES",
    "result": "50.9 µM (inactive)"
  }
]

---

test system: RXF 393; assay: NCI tumour cell line growth inhibition, 48 h
The source made the active and inactive calls. Cut-off read from the data, not from the text of the source: active = GI50 up to about 1.1 µM and inactive = higher.

[
  {
    "molecule": "NCCn1ccc(NC(c2ccccc2)(c2ccccc2)c2ccccc2)nc1=O",
    "test target": "RXF 393",
    "GI50": "4.08 µM (inactive)"
  },
  {
    "molecule": "S=C(Cc1ccc2c(c1)Sc1ccccc1O2)N1CCOCC1",
    "test target": "RXF 393",
    "GI50": "69.8 µM (inactive)"
  },
  {
    "molecule": "COc1ccc(C(=O)c2cc(OC)c(OC)c(OC)c2)cc1OC",
    "test target": "RXF 393",
    "GI50": "2.36 µM (inactive)"
  },
  {
    "molecule": "Cn1c(-c2cccc([N+](=O)[O-])c2)[n+](C)c2ccccc21",
    "test target": "RXF 393",
    "GI50": "> 100 µM (inactive)"
  },
  {
    "molecule": "CN(C)CC(/C(Cc1ccccc1)=N\\NC(=O)c1ccncc1)c1ccccc1 (stereo unspecified)",
    "test target": "RXF 393",
    "GI50": "28.7 µM (inactive)"
  },
  {
    "molecule": "CCOC(=O)/C(=C/c1ccc[nH]1)P(=O)(OCC)OCC",
    "test target": "RXF 393",
    "GI50": "> 100 µM (inactive)"
  }
]
